- Details: human, serum
Quantity measured: Hepatotoxicity (acute)
Response field accepts a number only; no unit should be typed.

Example compounds with recorded Hepatotoxicity (acute):
compound="COc1cc(C(=O)NCc2ccc(OCCN(C)C)cc2)cc(OC)c1OC [TRIMETHOBENZAMIDE]" measured_result=2
compound="O=C1C(O)=C([C@H]2CC[C@H](c3ccc(Cl)cc3)CC2)C(=O)c2ccccc21 [ATOVAQUONE]" measured_result=2

Consider now this further compound.
INPUT: // lookup Hepatotoxicity (acute) for CCCCCCCCCCC[C@@H](C[C@@H]1OC(=O)[C@H]1CCCCCC)OC(=O)[C@H](CC(C)C)NC=O [ORLISTAT]
OUTPUT: 2

* * *

Listed here are compounds together with their documented Hepatotoxicity (severe hepatitis).
- Details: human
Lab note: write the figure by itself, no unit.

Sample records with Hepatotoxicity (severe hepatitis):
compound="N[C@@H]1CON=C1O [CYCLOSERINE]" quantity_measured="Hepatotoxicity (severe hepatitis)" measured_result=1
compound="CCN(CCCc1ccccc1)CCCc1ccccc1 [ALVERINE]" quantity_measured="Hepatotoxicity (severe hepatitis)" measured_result=0

INPUT: Tell me the measured Hepatotoxicity (severe hepatitis) of CC(C(=O)O)c1cccc(C(=O)c2ccccc2)c1 (stereo not drawn) [KETOPROFEN] , please.
OUTPUT: 2

* * *

- Details: human
# Hepatotoxicity (steatosis) per record follows

Sample records with Hepatotoxicity (steatosis):
compound="Nc1ccc(C(=O)[O-])cc1.[K+] [AMINOBENZOATE POTASSIUM]" quantity_measured="Hepatotoxicity (steatosis)" measured_result=0
compound=CN(C)CCCn1c2c(c3ccccc31)CCCCCC2 quantity_measured="Hepatotoxicity (steatosis)" measured_result=0
compound=C[C@H](CSC(=O)c1ccccc1)C(=O)N1C[C@@H](Sc2ccccc2)C[C@H]1C(=O)O quantity_measured="Hepatotoxicity (steatosis)" measured_result=0
compound="COc1ccccc1OCCNCC(O)COc1cccc2[nH]c3ccccc3c12 (configuration not stated)" quantity_measured="Hepatotoxicity (steatosis)" measured_result=0
compound="CC(=O)NCCCCCCNC(C)=O [HEXAMETHYLENEBISACETAMIDE]" quantity_measured="Hepatotoxicity (steatosis)" measured_result=0

INPUT: I have this compound here, C[C@]12C=CC(=O)C=C1CC[C@@H]1[C@@H]2CC[C@@]2(C)[C@H]1CC[C@]2(C)O (stereo in doubt; form 1) , and I need its recorded Hepatotoxicity (steatosis).
OUTPUT: 0

INPUT: Returns the measured Hepatotoxicity (steatosis) for the input compound. Input: CO/N=C(\C(=O)N[C@@H]1C(=O)N2C(C(=O)[O-])=C(C[N+]3(C)CCCC3)CS[C@H]12)c1csc(N)n1
OUTPUT: 0

INPUT: Recorded Hepatotoxicity (steatosis) of O=c1[nH]cc(F)c(=O)[nH]1 , please.
OUTPUT: 4

INPUT: Which measured Hepatotoxicity (steatosis) value corresponds to CCCCC1C(=O)NN(c2ccccc2)C1=O (configuration not stated) ?
OUTPUT: 0

INPUT: Looking for the measured Hepatotoxicity (steatosis) of C[C@]12CC[C@H]3[C@@H](CCC4=CC(=O)CC[C@@]43C)[C@@H]1CC[C@@H]2O , can you help?
OUTPUT: 0

INPUT: I'd like to know its Hepatotoxicity (steatosis). The compound in question is Nc1nc2ccc(OC(F)(F)F)cc2s1
OUTPUT: 1

INPUT: If you can, please state the reported Hepatotoxicity (steatosis) value of COc1nc(C)nc(Cl)c1N=C1NCCN1 .
OUTPUT: 0
